- target or system: UniProtKB P51575
- Sequence (whole entry): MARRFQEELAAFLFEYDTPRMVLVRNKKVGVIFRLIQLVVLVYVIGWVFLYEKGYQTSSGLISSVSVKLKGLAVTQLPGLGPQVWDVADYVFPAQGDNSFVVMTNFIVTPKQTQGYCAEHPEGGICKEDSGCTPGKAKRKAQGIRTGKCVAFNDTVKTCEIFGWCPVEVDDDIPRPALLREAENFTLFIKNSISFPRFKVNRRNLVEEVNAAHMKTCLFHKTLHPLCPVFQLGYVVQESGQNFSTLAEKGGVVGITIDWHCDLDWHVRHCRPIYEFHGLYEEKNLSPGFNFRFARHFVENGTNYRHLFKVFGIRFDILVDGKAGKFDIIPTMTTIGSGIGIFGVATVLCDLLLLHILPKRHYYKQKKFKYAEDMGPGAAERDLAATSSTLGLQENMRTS
- protocol notes: Antagonist activity at human P2X1R transfected in human 1321N1 cells assessed as inhibition of ATP-induced calcium influx relative to control
- Type: cell-based
- condition info: concentration not given here
measure: inhibition (%)
State just the number; it will be interpreted in %.

The reported value for Nc1ncnc2c1ncn2[C@@H]1O[C@H](COP(=O)(O)OP(=O)(O)OP(=O)(O)O)[C@H]2O[C@@H](c3ccccc3)O[C@H]21 in terms of inhibition is 44

The reported value for Nc1ncnc2c1ncn2[C@@H]1O[C@H](COP(=O)(O)CP(=O)(O)OP(=O)(O)O)[C@H]2OC3(CCCCC3)O[C@H]21 in terms of inhibition is -1

The reported value for Nc1ncnc2c1ncn2[C@@H]1O[C@H](COP(=O)(O)OP(=O)(O)OP(=O)(O)O)[C@H]2O[C@H](c3ccccc3)O[C@H]21 in terms of inhibition is 27

The reported value for Nc1ncnc2c1ncn2[C@@H]1O[C@H](COP(=O)(O)OP(=O)(O)OP(=O)(O)O)[C@H]2OCO[C@H]21 in terms of inhibition is 1

The reported value for CC1(C)O[C@@H]2[C@H](O1)[C@@H](COC(=O)c1cc(C(=O)O)c(C(=O)O)cc1C(=O)O)O[C@H]2n1cnc2c(N)ncnc21 in terms of inhibition is 13

The reported value for CC1(C)O[C@@H]2[C@H](O1)[C@@H](C(=O)N[C@@H](CCC(=O)O)C(=O)O)O[C@H]2n1cnc2c(N)ncnc21 in terms of inhibition is 21

====

- target or system: P2X purinoceptor 7 (Homo sapiens, UniProt Q99572)
- Sequence (Q99572 whole entry): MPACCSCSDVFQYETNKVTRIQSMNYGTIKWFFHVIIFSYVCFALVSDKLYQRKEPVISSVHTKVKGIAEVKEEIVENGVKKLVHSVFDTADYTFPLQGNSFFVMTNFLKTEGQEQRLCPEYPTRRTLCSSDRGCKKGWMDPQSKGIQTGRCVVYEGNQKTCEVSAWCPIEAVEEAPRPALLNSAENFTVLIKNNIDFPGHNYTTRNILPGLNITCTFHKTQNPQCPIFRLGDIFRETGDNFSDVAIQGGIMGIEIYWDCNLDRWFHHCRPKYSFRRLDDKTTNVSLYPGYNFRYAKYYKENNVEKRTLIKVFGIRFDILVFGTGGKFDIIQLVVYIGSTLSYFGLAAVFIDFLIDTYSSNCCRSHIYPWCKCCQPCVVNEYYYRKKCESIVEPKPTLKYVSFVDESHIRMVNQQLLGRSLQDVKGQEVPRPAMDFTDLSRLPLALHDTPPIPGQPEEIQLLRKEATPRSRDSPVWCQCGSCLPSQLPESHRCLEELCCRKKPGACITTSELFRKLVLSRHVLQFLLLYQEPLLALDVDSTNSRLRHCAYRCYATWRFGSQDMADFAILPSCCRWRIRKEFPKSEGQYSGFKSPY
- protocol notes: Antagonist activity at human P2X7R transfected in human 1321N1 cells assessed as inhibition of Bz-ATP-induced calcium influx
pIC50: −log10 of the molar value.
Can you tell me pIC50 for the items I'm about to list?

The reported value for Nc1ncnc2c1ncn2[C@@H]1O[C@H](COP(=O)(O)OP(=O)(O)OP(=O)(O)O)[C@H]2OCO[C@H]21 in terms of pIC50 is < 4.00

The reported value for CC1(C)O[C@@H]2[C@H](O1)[C@@H](C(=O)N[C@@H](CCC(=O)O)C(=O)O)O[C@H]2n1cnc2c(N)ncnc21 in terms of pIC50 is < 4.52

The reported value for CC1(C)O[C@@H]2[C@H](O1)[C@@H](COC(=O)c1cc(C(=O)O)c(C(=O)O)cc1C(=O)O)O[C@H]2n1cnc2c(N)ncnc21 in terms of pIC50 is < 4.52

The reported value for Nc1ncnc2c1ncn2[C@@H]1O[C@H](COP(=O)(O)CP(=O)(O)OP(=O)(O)O)[C@H]2OC3(CCCCC3)O[C@H]21 in terms of pIC50 is < 4.00

The reported value for CC1(C)O[C@@H]2[C@H](O1)[C@@H](COP(=O)(O)OP(=O)(O)OP(=O)(O)O)O[C@H]2n1cnc2c(N)ncnc21 in terms of pIC50 is < 4.00

The reported value for Nc1ncnc2c1ncn2[C@@H]1O[C@H](COP(=O)(O)OP(=O)(O)OP(=O)(O)O)[C@H]2O[C@H](c3ccccc3)O[C@H]21 in terms of pIC50 is < 4.00

The reported value for Nc1ncnc2c1ncn2[C@@H]1O[C@H](COP(=O)(O)OP(=O)(O)OP(=O)(O)O)[C@H]2OC3(CCCCC3)O[C@H]21 in terms of pIC50 is < 4.00

The reported value for Nc1ncnc2c1ncn2[C@@H]1O[C@H](COP(=O)(O)OP(=O)(O)OP(=O)(O)O)[C@H]2O[C@@H](c3ccccc3)O[C@H]21 in terms of pIC50 is 5.07
